Entries annotated with measured pIC50
Target chain: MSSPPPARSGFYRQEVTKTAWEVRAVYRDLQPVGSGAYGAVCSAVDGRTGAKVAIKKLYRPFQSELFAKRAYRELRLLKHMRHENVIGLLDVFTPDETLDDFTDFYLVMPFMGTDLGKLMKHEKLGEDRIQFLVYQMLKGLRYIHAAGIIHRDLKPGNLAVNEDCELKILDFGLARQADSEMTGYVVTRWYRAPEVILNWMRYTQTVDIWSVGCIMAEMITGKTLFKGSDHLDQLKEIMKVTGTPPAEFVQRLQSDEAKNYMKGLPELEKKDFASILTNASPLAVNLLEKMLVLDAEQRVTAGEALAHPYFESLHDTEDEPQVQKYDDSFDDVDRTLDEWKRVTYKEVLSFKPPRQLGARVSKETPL
pIC50: −log10 of the molar value.

{"smiles text": "CNC(=O)Nc1cc(COc2ccc(NC(=O)Nc3cc(C(C)(C)C)nn3-c3ccc(C)cc3)c(Cl)c2Cl)ccn1", "pIC50": 6.85}
{"smiles text": "COCC(=O)Nc1cc(Oc2ccc(NC(=O)Nc3cc(C(C)(C)C)nn3-c3ccc(OC)cc3)c(Cl)c2Cl)ncn1", "pIC50": 6.79}
{"smiles text": "COCC(=O)Nc1cc(Oc2ccc(NC(=O)Nc3cc(C(C)(C)C)nn3-c3ccc(C)cc3)cc2Cl)ccn1", "pIC50": 7.34}
{"smiles text": "COc1ccc(-n2nc(C(C)(C)C)cc2NC(=O)Nc2ccc(Oc3ccnc(NC(=O)NCCN(C)C)c3)c(Cl)c2Cl)cc1", "pIC50": 7.66}
{"smiles text": "COc1ccc(-n2nc(C(C)(C)C)cc2NC(=O)Nc2ccc(Oc3cc(NC(=O)NCCN(C)C)ncn3)c(Cl)c2Cl)cc1", "pIC50": 7.23}
{"smiles text": "COCC(=O)Nc1cc(COc2ccc(NC(=O)Nc3cc(C(C)(C)C)nn3-c3ccc(C)cc3)c3cccnc23)ccn1", "pIC50": 5.84}
{"smiles text": "CNCC(=O)Nc1cc(Oc2ccc(NC(=O)Nc3cc(C(C)(C)C)nn3-c3ccc(CO)cc3)c(Cl)c2Cl)ccn1", "pIC50": 7.76}
{"smiles text": "COc1cc(-n2nc(C(C)(C)C)cc2NC(=O)Nc2ccc(Oc3ccnc(NC(=O)N4CC[C@H](N(C)C)C4)c3)c(Cl)c2Cl)ccc1CO", "pIC50": 7.57}
{"smiles text": "COc1ccc(-n2nc(C(C)(C)C)cc2NC(=O)Nc2ccc(Oc3ccnc(NC(=O)N(C)C)c3)c(Cl)c2Cl)cc1", "pIC50": 7.24}
{"smiles text": "CNC(=O)Nc1cc(Oc2ccc(NC(=O)Nc3cc(C(C)(C)C)nn3-c3ccc(CO)c(OC)c3)c(Cl)c2Cl)ccn1", "pIC50": 7.45}
{"smiles text": "COCC(=O)Nc1cc(CSc2ccc(NC(=O)Nc3cc(C(C)(C)C)nn3-c3ccc(OC)cc3)c(Cl)c2Cl)ccn1", "pIC50": 5.54}
{"smiles text": "COCC(=O)Nc1cc(Oc2ccc(NC(=O)Nc3cc(C(C)(C)C)nn3-c3ccc(C)cc3)c(Br)c2)ccn1", "pIC50": 6.83}
{"smiles text": "COCC(=O)Nc1cc(Oc2ccc(NC(=O)Nc3cc(C(C)(C)C)nn3-c3ccc(C)cc3)cc2C(F)(F)F)ccn1", "pIC50": 6.82}
{"smiles text": "CNC(=O)Nc1nccc(Oc2ccc(NC(=O)Nc3cc(C(C)(C)C)nn3-c3ccc(C)cc3)c(Cl)c2Cl)n1", "pIC50": 6.82}

Hello, the source for this data is patent US10000471B2, in case you need it.
